# Lookup of reported melting point keyed by entry

Worked cases, melting point given:
| COMPOUND | QUANTITY KIND | RESULT |
| --- | --- | --- |
| CCCCC1(CCCC)CS(=O)(=O)c2ccc(N(C)C)cc2[C@@H](c2ccc(OCCCCC[N+](C)(C)CCCCCC[N+](C)(C)CCCCCOc3ccc([C@@H]4c5cc(N(C)C)ccc5S(=O)(=O)CC(CCCC)(CCCC)[C@@H]4O)cc3)cc2)[C@H]1O (relative stereo) | melting point | 178 to 182 °C |
| CCCCC1(CCCC)CS(=O)(=O)c2ccc(N(C)C)cc2[C@@H](c2ccc(OCCCCS(N)(=O)=O)cc2)[C@H]1O | melting point | 108 to 110 °C |

# ---- query compound ----
May I ask what melting point has been recorded for `CCCCC1(CCCC)CS(=O)(=O)c2ccc(N(C)C)cc2[C@@H](c2ccc(OCc3ccc(C(=O)O)cc3)cc2)[C@H]1O` ?
156 to 159 °C

----------
TARGET SYSTEM: human IBAT (Homo sapiens, UniProt Q12908)
Construct: expressed in transfected cells; host or cells: Baby hamster kidney (BHK) cells, clone H14
Sequence (Q12908 1-348): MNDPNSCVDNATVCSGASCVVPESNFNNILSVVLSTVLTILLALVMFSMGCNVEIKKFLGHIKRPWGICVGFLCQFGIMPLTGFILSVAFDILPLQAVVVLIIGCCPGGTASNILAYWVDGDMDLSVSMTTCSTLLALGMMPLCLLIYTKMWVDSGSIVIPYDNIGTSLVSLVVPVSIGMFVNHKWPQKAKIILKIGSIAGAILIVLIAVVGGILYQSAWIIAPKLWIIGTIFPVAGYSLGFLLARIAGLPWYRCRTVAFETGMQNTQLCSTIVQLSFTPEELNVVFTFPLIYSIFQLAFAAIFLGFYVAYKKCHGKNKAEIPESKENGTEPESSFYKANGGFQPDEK
PROTOCOL NOTES: In vitro assay of IBAT-mediated uptake of [14C]-taurocholate (TC) in H14 cells
Type: cell-based
MEASUREMENT CONDITIONS: read-out: Human TC IC50
QUANTITY KIND: pIC50
Just so you know, pIC50 here is -log10 of the concentration in molar units; reply with that number alone.

Worked cases, pIC50 given:
| MOLECULE | pIC50 |
| --- | --- |
| CCCCC1(CCCC)CS(=O)(=O)c2ccc(C)cc2C(c2ccc(F)cc2)C1O (centres unmarked) [Example 1155] | 7.41 |
| CCCCC1(CCCC)CS(=O)(=O)c2ccc(N(C)C)cc2C(c2ccc(OCc3cc[n+](C)cc3)c(F)c2)C1O (centres unmarked) | 8.52 |
| CCCCC1(CCCC)CS(=O)(=O)c2ccc(N(C)C)cc2C(c2cccc(OCCOCCOCC[n+]3ccn(CC)c3)c2)C1O (centres unmarked) | 8.70 |

Can you look up pIC50 on human IBAT (Homo sapiens, UniProt Q12908) for C=CC(=O)Nc1cccc(C2c3cc(N(C)C)ccc3S(=O)(=O)CC(CCCC)(CCCC)C2O)c1 (centres unmarked) ?
8.52

Can you look up pIC50 on human IBAT (Homo sapiens, UniProt Q12908) for CCCCC1(CCCC)CS(=O)(=O)c2ccc(N(C)C)cc2C(c2ccc(OCCC[n+]3ccc(CCC(=O)O)cc3)c(F)c2)C1O (centres unmarked) ?
8.10
